Test system: Heliothis virescens
assay_remarks: Tobacco budworm (Heliothis virescens) insect diet microtiter plate test
Assay type: in vivo
test_settings: 120 h, read-out: mortality in comparison with untreated controls (egg and larval mortality)
measurement_type: mortality at 2500 ppm

stdin: Value lookup for mortality at 2500 ppm; key = Cc1cc(C2=NOC(c3cc(Cl)cc(Cl)c3)(C(F)(F)F)C2)ccc1C(=O)NCC1OC(=O)N(CC2CC2)C1=O (stereo not drawn) [Compound I-4-6]
stdout: > 75%

stdin: Can you handle CN1C(=O)SC(NC(=O)c2ccc(C3=NOC(c4cc(Cl)cc(C(F)(F)F)c4)(C(F)(F)F)C3)c3c2CCC3)C1=O (stereo not drawn) [Compound I-1-8] next?
stdout: > 75%

stdin: Can you handle CN1C(=O)OC(CNC(=O)c2ccc(C3=NOC(c4cc(Cl)cc(Cl)c4)(C(F)(F)F)C3)cc2Cl)C1=O (stereo not drawn) [Compound I-4-1] next?
stdout: > 75%

----------
For each record, write down the corresponding mortality at 2500 ppm.
Tested on: Aedes aegypti
assay_remarks: whole plant or invertebrate
Assay type: in vivo
test_settings: 48 h, A. aegypti larvae, incubated 2 days, read-out: mortality in comparison with untreated controls (larval mortality)

stdin: Give mortality at 2500 ppm (Aedes aegypti) of the following molecule: Cc1cc(C2=NOC(c3cc(Cl)cc(Cl)c3)(C(F)(F)F)C2)ccc1C(=O)NC1SC(=O)N(C)C1=O (stereo not drawn)
stdout: > 75%

stdin: Can you handle O=C(NCC1OCN(CC2CC2)C1=O)c1ccc(C2=NOC(c3cc(Cl)c(F)c(Cl)c3)(C(F)(F)F)C2)cc1Cl (stereo not drawn) next?
stdout: > 75%

stdin: Can you handle CCN1C(=O)SC(NC(=O)c2ccc(C3=NCC(c4cc(Cl)c(F)c(Cl)c4)(C(F)(F)F)C3)c3c2CCC3)C1=O (stereo not drawn) next?
stdout: > 75%

----------
Tested on: dichromothrips corbetti
assay_remarks: Orchid thrips floral-immersion test
Assay type: in vivo
test_settings: 72 h, read-out: mortality in comparison with untreated controls
Method: Dichromothrips corbetti adults used for bioassay are obtained from a colony maintained continu-ously under laboratory conditions. For testing purposes, the test compound is diluted in a 1:1 mix-ture of acetone:water (vol:vol), plus Kinetic at a rate of 0.01% v/v. Thrips potency of each compound is evaluated by using a floral-immersion technique. Each orchid petal is dipped into treatment solution and allowed to dry in Petri dishes. […] The percent mor-tality is recorded 72 hours after treatment.
For each record, write down the corresponding mortality at 300 ppm.

stdin: Value lookup for mortality at 300 ppm; key = CN1COC(CNC(=O)c2ccc(C3=NOC(c4cc(Cl)c(F)c(Cl)c4)(C(F)(F)F)C3)cc2Cl)C1=O (centres unmarked)
stdout: > 75%

stdin: Can you handle CN1C(=O)SC(NC(=O)c2ccc(C3=NOC(c4cc(Cl)cc(Cl)c4)(C(F)(F)F)C3)cc2Cl)C1=O (centres unmarked) next?
stdout: > 75%

stdin: Can you handle Cc1cc(C2=NOC(c3cc(Cl)cc(Cl)c3)(C(F)(F)F)C2)ccc1C(=O)NCC1OCN(CC2CC2)C1=O (centres unmarked) next?
stdout: > 75%

stdin: Can you handle Cc1cc(C2=NOC(c3cc(Cl)cc(Cl)c3)(C(F)(F)F)C2)ccc1C(=O)NC1SC(=O)N(C(C)C)C1=O (centres unmarked) next?
stdout: > 75%

stdin: Can you handle CN1COC(CNC(=O)c2ccc(C3=NOC(c4cc(Cl)cc(C(F)(F)F)c4)(C(F)(F)F)C3)c3c2CCC3)C1=O (centres unmarked) next?
stdout: > 75%

stdin: Can you handle Cc1cc(C2=NOC(c3cc(Cl)cc(Cl)c3)(C(F)(F)F)C2)ccc1C(=O)NCC1OCN(C)C1=O (centres unmarked) next?
stdout: > 75%

stdin: Can you handle Cc1cc(C2=NOC(c3cc(Cl)c(F)c(Cl)c3)(C(F)(F)F)C2)ccc1C(=O)NC1SC(=O)N(C(C)C)C1=O (centres unmarked) next?
stdout: > 75%

stdin: Can you handle O=C(NCC1OCN(CC2CC2)C1=O)c1ccc(C2=NOC(c3cc(Cl)cc(Cl)c3)(C(F)(F)F)C2)cc1Cl (centres unmarked) next?
stdout: > 75%

stdin: Can you handle CC(C)N1C(=O)SC(NC(=O)c2ccc(C3=NOC(c4cc(Cl)cc(Cl)c4)(C(F)(F)F)C3)cc2Cl)C1=O (centres unmarked) next?
stdout: > 75%

stdin: Can you handle CCN1C(=O)SC(NC(=O)c2ccc(C3=NOC(c4cc(Cl)c(F)c(Cl)c4)(C(F)(F)F)C3)cc2Cl)C1=O (centres unmarked) next?
stdout: > 75%

stdin: Can you handle CN1COC(CNC(=O)c2ccc(C3=NOC(c4cc(Cl)c(F)c(Cl)c4)(C(F)(F)F)C3)c3c2CCC3)C1=O (centres unmarked) next?
stdout: > 75%

stdin: Can you handle O=C(NCC1OCN(CC2CC2)C1=O)c1ccc(C2=NOC(c3cc(Cl)c(F)c(Cl)c3)(C(F)(F)F)C2)cc1Cl (centres unmarked) next?
stdout: > 75%

stdin: Can you handle Cc1cc(C2=NOC(c3cc(Cl)cc(Cl)c3)(C(F)(F)F)C2)ccc1C(=O)NCC1OC(=O)N(CC2CC2)C1=O (centres unmarked) next?
stdout: > 75%

stdin: Can you handle Cc1cc(C2=NOC(c3cc(Cl)cc(Cl)c3)(C(F)(F)F)C2)ccc1C(=O)NCC1OC(=O)N(CC(F)(F)F)C1=O (centres unmarked) next?
stdout: > 75%

----------
System: Heliothis virescens
assay_remarks: Tobacco budworm (Heliothis virescens) insect diet microtiter plate test
Assay type: in vivo
test_settings: 120 h, read-out: mortality in comparison with untreated controls (egg and larval mortality)
Procedure: For evaluating control of tobacco budworm (Heliothis virescens) the test unit consisted of 96-well-microtiter plates containing an insect diet and 15-25 H. virescens eggs. The compounds were formulated using a solution containing 75% v/v water and 25% v/v DMSO. […] After application, microtiter plates were incubated at about 28 + 1°C and about 80 + 5 % relative humidity for 5 days. Egg and larval mortality was then visually assessed.
For each record, write down the corresponding mortality at 2500 ppm.

stdin: Give mortality at 2500 ppm (Heliothis virescens) of the following molecule: CCN1C(=O)SC(NC(=O)c2ccc(C3=NOC(c4cc(Cl)c(F)c(Cl)c4)(C(F)(F)F)C3)cc2Cl)C1=O (stereo not shown)
stdout: > 75%

stdin: Can you handle Cc1cc(C2=NOC(c3cc(Cl)cc(Cl)c3)(C(F)(F)F)C2)ccc1C(=O)NCC1OCN(C)C1=O (stereo not shown) next?
stdout: > 75%

stdin: Can you handle Cc1cc(C2=NOC(c3cc(Cl)cc(Cl)c3)(C(F)(F)F)C2)ccc1C(=O)NC1SC(=O)N(C)C1=O (stereo not shown) next?
stdout: > 75%

stdin: Can you handle CN1C(=O)SC(NC(=O)c2ccc(C3=NOC(c4cc(Cl)c(F)c(Cl)c4)(C(F)(F)F)C3)c3c2CCC3)C1=O (stereo not shown) next?
stdout: > 75%

stdin: Can you handle Cc1cc(C2=NOC(c3cc(Cl)cc(Cl)c3)(C(F)(F)F)C2)ccc1C(=O)NC1SC(=O)N(C(C)C)C1=O (stereo not shown) next?
stdout: > 75%

stdin: Can you handle CCN1C(=O)SC(NC(=O)c2ccc(C3=NOC(c4cc(Cl)cc(Cl)c4)(C(F)(F)F)C3)cc2C)C1=O (stereo not shown) next?
stdout: > 75%

stdin: Can you handle CCN1COC(CNC(=O)c2ccc(C3=NOC(c4cc(Cl)cc(Cl)c4)(C(F)(F)F)C3)cc2Cl)C1=O (stereo not shown) next?
stdout: > 75%

stdin: Can you handle CN1COC(CNC(=O)c2ccc(C3=NOC(c4cc(Cl)c(F)c(Cl)c4)(C(F)(F)F)C3)c3c2CCC3)C1=O (stereo not shown) next?
stdout: > 75%

stdin: Can you handle Cc1cc(C2=NOC(c3cc(Cl)c(F)c(Cl)c3)(C(F)(F)F)C2)ccc1C(=O)NC1SC(=O)N(C(C)C)C1=O (stereo not shown) next?
stdout: > 75%

stdin: Can you handle O=C(NCC1OCN(CC2CC2)C1=O)c1ccc(C2=NOC(c3cc(Cl)c(F)c(Cl)c3)(C(F)(F)F)C2)cc1Cl (stereo not shown) next?
stdout: > 75%

stdin: Can you handle O=C(NCC1OC(=O)N(CC(F)(F)F)C1=O)c1ccc(C2=NOC(c3cc(Cl)cc(Cl)c3)(C(F)(F)F)C2)cc1Cl (stereo not shown) next?
stdout: > 75%

stdin: Can you handle CN1COC(CNC(=O)c2ccc(C3=NOC(c4cc(Cl)cc(C(F)(F)F)c4)(C(F)(F)F)C3)c3c2CCC3)C1=O (stereo not shown) next?
stdout: > 75%

stdin: Can you handle O=C(NCC1OC(=O)N(CC2CC2)C1=O)c1ccc(C2=NOC(c3cc(Cl)cc(Cl)c3)(C(F)(F)F)C2)cc1Cl (stereo not shown) next?
stdout: > 75%

Sourced from patent EP3696177A1
